From: ChEMBL document CHEMBL1121626

Could you please report measured AD for the items listed next?
- System: Oryctolagus cuniculus
- Assay Comment: Anaesthetic activity measured as anaesthetic dose (AD) required to nullify the rabbit corneal reflex after 5 min
- Format: functional, Cornea
Reply with just the number (in mM).

Input line: I'd like to know its AD. The molecule in question is "CCCN(CCC)CC(=O)NC1c2ccccc2-c2ccccc21.Cl"
Output line: 20.9

Input line: How about this molecule: "CCCCN(CCCC)CC(=O)NCc1ccccc1.Cl"
Output line: 16

Input line: Also need "CCN(CC)CC(=O)NCc1ccccc1-c1ccccc1.Cl" , thanks.
Output line: 34.5

Input line: And the next one, "Cl.O=C(CN1CCCCC1)NCc1ccccc1" ?
Output line: 186

Input line: # repeat for "CCN(CC)CC(=O)NC(c1ccccc1)c1ccccc1.Cl"
Output line: 15

Input line: And what about the molecule CCCN(CCC)CC(=O)NC1CCc2ccccc21.Cl (configuration not stated) ?
Output line: 12.8

Input line: What about "O=C(CN1CCCC1)NCc1ccccc1" ?
Output line: 196

Input line: Another: "CCN(CC)CC(=O)NC1c2ccccc2CCc2ccccc21.Cl"
Output line: 20.9

Input line: Proceed to CCN(CC)CC(=O)NC1CC(c2ccccc2)c2ccccc21.Cl (configuration not stated)
Output line: 55.8

Input line: Now the molecule "Cl.O=C(CN1CCOCC1)NCc1ccccc1"
Output line: 185

Input line: Would you kindly repeat that for CCN(CC)CCOC(=O)c1ccc(N)cc1.Cl [PROCAINE HYDROCHLORIDE] ?
Output line: 36.7

Input line: Please give the result for "CCN(CC)CC(=O)NC1c2ccccc2-c2ccccc21.Cl" too.
Output line: 15.1
